This collection of values is drawn from the supplement of paper PMC11208160.

- measurementProtocol: recombinant barcode read abundance after kanamycin selection (control-corrected) (log10(CPM+1)); higher = more efficient recombination; sequences stand for … in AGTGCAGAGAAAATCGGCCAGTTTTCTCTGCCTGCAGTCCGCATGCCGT…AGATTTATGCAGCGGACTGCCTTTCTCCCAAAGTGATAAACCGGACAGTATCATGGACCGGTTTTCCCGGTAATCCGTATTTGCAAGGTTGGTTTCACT; site = the 11-nt target;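 also: IS621 recombinase and bridge RNA in Escherichia coli cells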
assayMetric: recombinant barcode read abundance (log10)
One number for each entry.

Answered examples (2):
{"sequenceRecord": "CTACGCGCTTGGGTTCTAACCTGTTGCTT (site GTACGCGCTAC)", "quantitativeResult": 0.309}
{"sequenceRecord": "GAGCCACCTTGGGTTCTAACCTGTTGCCA (site GAGCAACCTCG)", "quantitativeResult": 0.0457}

Give me recombinant barcode read abundance (log10) for each of these sequences, listed below.
1. CAACCGTCTTGGGTTCTAACCTGTTGCCT (site CAACCGTCTAG)
2. TGAAAGTCTTGGGTTCTAACCTGTTGCCT (site TGAACGTCTAG)
3. CCGCGGACTTGGGTTCTAACCTGTTGCTT (site CCGCGGACTAA)
4. GCCGAGTCTTGGGTTCTAACCTGTTGCAC (site GCCGAGTCTAG)

[reply]
1: 1.33; 2: 0.0267; 3: 0.578; 4: 0.288

Give me recombinant barcode read abundance (log10) for each of these sequences, listed below.
1. GCCGTCTCTTGGGTTCTAACCTGTTGCCT (site GCCATCTCTAG)
2. CACCCTTCTTGGGTTCTAACCTGTTGCTC (site TCTGGCCCTAG)

[reply]
1: 0.114; 2: 0.0488

Give me recombinant barcode read abundance (log10) for each of these sequences, listed below.
1. GATGGTACTTGGGTTCTAACCTGTTGCAT (site GATGGTACTAT)
2. GAGGTGCCTTGGGTTCTAACCTGTTGCAG (site ATAACCTCTAG)
3. GTCGGGCCTTGGGTTCTAACCTGTTGCCT (site GTCGGGCCTAG)
4. CACAGCACTTGGGTTCTAACCTGTTGCCT (site CACAACACTAG)
5. AGCTCGTCTTGGGTTCTAACCTGTTGCGG (site AGTTCGTCTCG)

[reply]
1.46
0.174
0.686
0.065
0.191

---

- measurementProtocol: recombinant barcode read abundance after kanamycin selection (control-corrected) (log10(CPM+1)); higher = more efficient recombination; sequences stand for … in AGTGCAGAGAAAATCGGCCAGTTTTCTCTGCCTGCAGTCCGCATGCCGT…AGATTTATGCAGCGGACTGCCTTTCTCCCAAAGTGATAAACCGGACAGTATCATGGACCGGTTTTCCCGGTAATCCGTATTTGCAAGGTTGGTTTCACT; site = the 11-nt target
assayMetric: recombinant barcode read abundance (log10)
One number for each entry.

{"sequenceRecord": "TACAGAGCTTGGGTTCTAACCTGTTGCGG (site TACAGAGCTCC)", "quantitativeResult": 2.36}
{"sequenceRecord": "ATACTCTCTTGGGTTCTAACCTGTTGCCT (site AGACTCTCTAG)", "quantitativeResult": 0}
{"sequenceRecord": "GGACCTCCTTGGGTTCTAACCTGTTGCCT (site GGACCTCCTAC)", "quantitativeResult": 0.251}

Give me recombinant barcode read abundance (log10) for each of these sequences, listed below.
1. TAGGTGTCTTGGGTTCTAACCTGTTGCCT (site TAAGTGTCTAG)
2. AGATTAGCTTGGGTTCTAACCTGTTGCCG (site GCGGATCCTTA)

[reply]
[1.04, 0.0251]

Give me recombinant barcode read abundance (log10) for each of these sequences, listed below.
1. CCTGGCACTTGGGTTCTAACCTGTTGCGA (site CCTTGCACTTC)
2. CGGGACACTTGGGTTCTAACCTGTTGCGG (site CGGGACACTCC)
3. ATGGTCCCTTGGGTTCTAACCTGTTGCCT (site ATAGTCCCTAG)

[reply]
1. 0.0559
2. 2.82
3. 3.2

Give me recombinant barcode read abundance (log10) for each of these sequences, listed below.
1. AGGGCGCCTTGGGTTCTAACCTGTTGCCT (site AAGGCGCCTAG)
2. TAGCGTCCTTGGGTTCTAACCTGTTGCAC (site TCGCGTCCTTT)
3. ACGGGTCCTTGGGTTCTAACCTGTTGCAG (site ACGGGTCCTCT)

[reply]
1. 0.0579
2. 0.157
3. 3.09

Give me recombinant barcode read abundance (log10) for each of these sequences, listed below.
1. TATTGGACTTGGGTTCTAACCTGTTGCAG (site TATTGGACTCT)
2. GTCCGTCCTTGGGTTCTAACCTGTTGCCT (site GTCCGTCCTAA)

[reply]
1.05
0.119
